- System: RAW264.7
- test.protocol: Antiinflammatory activity against LPS-induced mouse RAW264.7 cells assessed as inhibition of NO production at 50 uM preincubated for 4 hrs followed by LPS stimulation for 24 hrs by Griess reaction
- Format: functional
Answer criterion not met if inhibition at 50 µM is under 80%, and criterion met if it is 80% or more.

Please indicate if the recorded inhibition at 50 µM for COc1ccc([C@@H]2C(=O)c3ccc(OC)cc3[C@H]2c2ccc(C)cc2)cc1 (relative stereo) meets or exceeds 80%. criterion not met

Please indicate if the recorded inhibition at 50 µM for COc1cc(OC)cc([C@@H]2C(=O)c3cc(OC)cc(OC)c3[C@H]2c2ccccc2)c1 (relative stereo) meets or exceeds 80%. criterion not met

Please indicate if the recorded inhibition at 50 µM for COc1cc(OC)cc([C@@H]2C(=O)c3cc(OC)cc(OC)c3[C@H]2C2CCCCC2)c1 (relative stereo) meets or exceeds 80%. criterion not met

Please indicate if the recorded inhibition at 50 µM for COc1cc(OC)cc([C@@H]2C(=O)c3cc(OC)cc(OC)c3[C@H]2c2ccc(C(F)(F)F)cc2)c1 (relative stereo) meets or exceeds 80%. criterion not met

Please indicate if the recorded inhibition at 50 µM for COc1ccc(C2C(=O)c3ccc(OC)cc3C2c2ccccc2)cc1 (racemic) meets or exceeds 80%. criterion met

Please indicate if the recorded inhibition at 50 µM for COc1cc(OC)cc([C@@H]2C(=O)c3cc(OC)cc(OC)c3[C@H]2c2ccc(OC(F)(F)F)cc2)c1 (relative stereo) meets or exceeds 80%. criterion not met

---

What IC50 was measured for each of the following?
- Test system: RAW264.7
- test.protocol: Antiinflammatory activity against LPS-induced mouse RAW264.7 cells assessed as inhibition of NO production at preincubated for 4 hrs followed by LPS stimulation for 24 hrs by Griess reaction
- Format: functional, cell-based
- measurement.context: raw264.7
Reply with just the number (in µM).

Tell me measured IC50 for COc1ccc(C2C(=O)c3ccc(OC)cc3C2c2ccccc2)cc1 (single isomer, unassigned; (-)) please. 23.7

Tell me measured IC50 for COc1ccc(C2C(=O)c3ccc(OC)cc3C2c2ccccc2)cc1 (single isomer, unassigned; (+)) please. 23.5

---

- Test system: RAW264.7
- test.protocol: Antiinflammatory activity against LPS-induced mouse RAW264.7 cells assessed as inhibition of NO production at preincubated for 4 hrs followed by LPS stimulation for 24 hrs by Griess reaction
- Format: functional, cell-based
- measurement.context: Mus musculus, RAW264.7
readout.label: IC50 (µM)
Reply with just the number (in µM).

Tell me measured IC50 for COc1ccc(C2C(=O)c3ccc(OC)cc3C2c2ccccc2)cc1 (racemic) please. 23.2

---

- test.protocol: Solubility in water at pH 1.2
- Format: physicochemical
readout.label: solubility (µg/mL)
Reply with just the number (in µg/mL).

Tell me measured solubility for COc1ccc(C2C(=O)c3ccc(OC)cc3C2c2ccccc2)cc1 (racemic) please. 38.3
